tested-target: beta-catenin/TCF4 engagement (Homo sapiens)
Construct: expressed in transfected cells; host or cells: HEK293
Sequence (P35222 whole entry): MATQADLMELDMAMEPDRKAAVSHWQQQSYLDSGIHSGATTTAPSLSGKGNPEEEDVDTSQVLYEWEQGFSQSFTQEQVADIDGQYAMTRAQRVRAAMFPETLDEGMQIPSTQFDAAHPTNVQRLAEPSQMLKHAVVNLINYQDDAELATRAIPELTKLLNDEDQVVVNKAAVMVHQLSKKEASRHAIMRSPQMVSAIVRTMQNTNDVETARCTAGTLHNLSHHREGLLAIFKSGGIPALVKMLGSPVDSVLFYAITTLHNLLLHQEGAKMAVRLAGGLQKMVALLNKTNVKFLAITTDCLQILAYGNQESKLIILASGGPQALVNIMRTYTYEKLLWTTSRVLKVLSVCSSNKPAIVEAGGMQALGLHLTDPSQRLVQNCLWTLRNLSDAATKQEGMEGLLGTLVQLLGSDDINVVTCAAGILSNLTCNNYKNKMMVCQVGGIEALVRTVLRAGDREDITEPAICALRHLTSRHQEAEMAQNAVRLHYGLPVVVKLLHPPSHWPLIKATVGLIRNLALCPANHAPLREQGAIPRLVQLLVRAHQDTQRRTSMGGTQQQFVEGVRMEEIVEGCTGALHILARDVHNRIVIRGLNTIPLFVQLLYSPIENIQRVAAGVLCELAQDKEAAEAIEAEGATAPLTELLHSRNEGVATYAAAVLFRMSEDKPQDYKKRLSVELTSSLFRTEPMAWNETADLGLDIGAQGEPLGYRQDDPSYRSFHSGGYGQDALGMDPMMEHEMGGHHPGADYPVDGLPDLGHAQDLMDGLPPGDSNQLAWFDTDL
protocol-notes: Nano-BRET target engagement assay (B-cat-Halo & TCF4-Luc in HEK293 cells)
Assay type: cell-based
assay-setup: absolute IC50; read-out: NanoBRET Abs IC50
measured-property: IC50 (µM)
// return numeric value only (unit: µM, not printed)

Q. Reported IC50 for CC(=O)N1CCC[C@]12CC=CCCCC1(CCCC=CCCCOC(=O)N3CC[C@@](C(=O)N[C@@H](Cc4ccccc4Cl)C(=O)N[C@@H](Cc4csc5ccccc45)C(=O)N[C@@H](CCC(N)=O)C(N)=O)(C3)NC(=O)[C@H](CC(N)=O)NC(=O)[C@H](Cc3ccccc3)NC(=O)[C@H](CC(C)C)NC(=O)[C@H](C)NC(=O)[C@H](CN(CC(=O)O)CC(F)(F)F)NC(=O)[C@H](CC(=O)O)NC1=O)NC(=O)[C@H](CC(C)(C)C)NC(=O)[C@H](CC(=O)O)NC2=O (some centres unmarked) : what is it?
A. 29.8
